# protein stability index per record follows
B1: FUT8 (parent)
chain: YAHQPRTADEIPMEPGDIIGVAGN

Variants of: B1
Assay: protein stability index of a GFP-peptide fusion (GPS, HEK-293T) (PSI 1-6); higher = more stable;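 also: lentivirally expressed fusions sorted by FACS into six bins by GFP to DsRed ratio, PSI derived from sequencing read proportions per bin multiplied by bin number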
Conditions: c terminus: a fixed tail appended

>  <variant>
G20T

>  <protein stability index>
4.37

$$$$
>  <variant>
N24Y

>  <protein stability index>
3.21

$$$$
>  <variant>
D9M

>  <protein stability index>
3.74

$$$$
>  <variant>
I11M

>  <protein stability index>
4.09

$$$$
>  <variant>
I18K

>  <protein stability index>
4.56

$$$$
>  <variant>
I11F

>  <protein stability index>
3.71

$$$$
>  <variant>
P5C

>  <protein stability index>
3.72

$$$$
>  <variant>
R6L

>  <protein stability index>
4.2

$$$$
>  <variant>
P12V

>  <protein stability index>
3.72

$$$$
>  <variant>
P12I

>  <protein stability index>
3.27

$$$$
>  <variant>
E10I

>  <protein stability index>
2.99

$$$$
>  <variant>
T7Y

>  <protein stability index>
3.58

$$$$
>  <variant>
E14K

>  <protein stability index>
3.29

$$$$
>  <variant>
E10H

>  <protein stability index>
3.33

$$$$
>  <variant>
Y1I

>  <protein stability index>
5.16

$$$$
>  <variant>
A22S

>  <protein stability index>
3.92

$$$$
>  <variant>
H3D

>  <protein stability index>
4.78

$$$$
>  <variant>
P5M

>  <protein stability index>
3.53

$$$$
>  <variant>
G20C

>  <protein stability index>
3.73

$$$$
>  <variant>
A22R

>  <protein stability index>
4

$$$$
>  <variant>
Y1R

>  <protein stability index>
4.84

$$$$
>  <variant>
I19G

>  <protein stability index>
4.34

$$$$
>  <variant>
P12H

>  <protein stability index>
3.41

$$$$
>  <variant>
A8T

>  <protein stability index>
4.24

$$$$
>  <variant>
I19C

>  <protein stability index>
4.22

$$$$
>  <variant>
V21T

>  <protein stability index>
4.69

$$$$
>  <variant>
A2H

>  <protein stability index>
3.59

$$$$
>  <variant>
Q4P

>  <protein stability index>
3.52

$$$$
>  <variant>
I19S

>  <protein stability index>
4.55

$$$$
>  <variant>
H3K

>  <protein stability index>
4.34

$$$$
>  <variant>
G16Q

>  <protein stability index>
4.17

$$$$
>  <variant>
P15M

>  <protein stability index>
3.68

$$$$
>  <variant>
A2F

>  <protein stability index>
4.45

$$$$
>  <variant>
I11D

>  <protein stability index>
4.65

$$$$
>  <variant>
M13H

>  <protein stability index>
4.33

$$$$
>  <variant>
A8P

>  <protein stability index>
4.32

$$$$
>  <variant>
E10L

>  <protein stability index>
3.56

$$$$
>  <variant>
R6V

>  <protein stability index>
4.44

$$$$
>  <variant>
D17Y

>  <protein stability index>
2.68

$$$$
>  <variant>
G20V

>  <protein stability index>
3.5

$$$$
>  <variant>
I11V

>  <protein stability index>
4.55

$$$$
>  <variant>
E14Y

>  <protein stability index>
2.27

$$$$
>  <variant>
D17M

>  <protein stability index>
3.06

$$$$
>  <variant>
R6H

>  <protein stability index>
4.25

$$$$
>  <variant>
A8C

>  <protein stability index>
3.44

$$$$
>  <variant>
I11W

>  <protein stability index>
3.44

$$$$
>  <variant>
P12Y

>  <protein stability index>
3.21

$$$$
>  <variant>
D9A

>  <protein stability index>
3.53

$$$$
>  <variant>
E10S

>  <protein stability index>
3.74

$$$$
>  <variant>
M13F

>  <protein stability index>
3.43

$$$$
>  <variant>
T7S

>  <protein stability index>
4.12

$$$$
>  <variant>
G23H

>  <protein stability index>
3.99

$$$$
>  <variant>
Y1C

>  <protein stability index>
3.93

$$$$
>  <variant>
T7D

>  <protein stability index>
4.62

$$$$
>  <variant>
G23T

>  <protein stability index>
3.87

$$$$
>  <variant>
T7L

>  <protein stability index>
3.71

$$$$
>  <variant>
I19H

>  <protein stability index>
4.02

$$$$
>  <variant>
A22C

>  <protein stability index>
3.14

$$$$
>  <variant>
E14I

>  <protein stability index>
3.23

$$$$
>  <variant>
G20D

>  <protein stability index>
4.59

$$$$
>  <variant>
A8I

>  <protein stability index>
4.02

$$$$
>  <variant>
P5R

>  <protein stability index>
3.55

$$$$
>  <variant>
Q4K

>  <protein stability index>
2.85

$$$$
>  <variant>
G23Q

>  <protein stability index>
4.11

$$$$
>  <variant>
R6G

>  <protein stability index>
4.65

$$$$
>  <variant>
I19Q

>  <protein stability index>
4.25

$$$$
>  <variant>
N24S

>  <protein stability index>
4.17

$$$$
>  <variant>
A8H

>  <protein stability index>
3.87

$$$$
>  <variant>
I18D

>  <protein stability index>
4.95

$$$$
>  <variant>
I11S

>  <protein stability index>
4.09

$$$$
>  <variant>
N24T

>  <protein stability index>
4.13

$$$$
>  <variant>
G16Y

>  <protein stability index>
3.05

$$$$
>  <variant>
P12D

>  <protein stability index>
4.2

$$$$
>  <variant>
I11C

>  <protein stability index>
4.26

$$$$
>  <variant>
M13K

>  <protein stability index>
3.95

$$$$
>  <variant>
P15I

>  <protein stability index>
3.5

$$$$
>  <variant>
G20Q

>  <protein stability index>
4.06

$$$$
>  <variant>
P12W

>  <protein stability index>
2.4

$$$$
>  <variant>
D17L

>  <protein stability index>
2.3

$$$$
>  <variant>
Y1M

>  <protein stability index>
5.19

$$$$
>  <variant>
E10N

>  <protein stability index>
3.73

$$$$
>  <variant>
Q4E

>  <protein stability index>
4.61

$$$$
>  <variant>
P12L

>  <protein stability index>
3.57

$$$$
>  <variant>
A2R

>  <protein stability index>
4.56

$$$$
>  <variant>
Q4R

>  <protein stability index>
3.06

$$$$
>  <variant>
M13T

>  <protein stability index>
4.34

$$$$
>  <variant>
R6A

>  <protein stability index>
4.48

$$$$
>  <variant>
I19T

>  <protein stability index>
4.16

$$$$
>  <variant>
D9Y

>  <protein stability index>
2.62

$$$$
>  <variant>
G23Y

>  <protein stability index>
3.13

$$$$
>  <variant>
I18V

>  <protein stability index>
4.47

$$$$
